Tested on: Bacillus subtilis
Experiment: cleaved RNA product abundance (RNA/gDNA barcode ratio) relative to median wild-type variant (ratio to wild type); higher = more accumulation of the downstream cleavage product
Details: experiment (reporter, strain, medium): exp 4a: truncated aprE reporter, strain BJT201 with 2% xylose (RNase J1 expressed); cleavage site: cggR-gapA (positions -7 to +36 mutated)
What cleaved RNA product abundance was measured for each of the following?
One number for each entry.

Reference set (3 entries):
ACAGACGAAGGAGCCGCAAAGAATTCATTAAGGGATGAATAATCCCTCAATATAAATATCTCTCACTTATTTAAA	0.23
ACAGACGAAGGAGCCGCAAACAAGTTATTAAGCGATGAATAATCCCTCAATATAAATATCTCTCACTTATTTAAA	0.0647
ACAGACGAAGGAGCCGCAAAGAAATTATTAAGGGATGAATAATCCCTCAGTATAAATATCTCTCACTTATTTAAA	0.215

Value sought for every listed sequence: cleaved RNA product abundance.
1. ACAGACGAAGGAGCCGCAACGAATTTATTAAGGGATGAATAATCCCTCAATATAAATATCTCTCACTTATTTAAA
2. ACAGACGAAGGAGCCGCAAGGAAGTTATTAAGGGATGAATAATACCTCAATATAAATATCTCTCACTTATTTAAA
3. ACAGACGAAGGAGCCGCAAAGAAGTTATTAAGGGATTAATAATCCATCAATATAAATATCTCTCACTTATTTAAA
4. ACAGACGAAGGAGCCGCAAAGAAGTTCTTAAGGGATCAATAATCCCTCAATATAAATATCTCTCACTTATTTAAA

*A*
1. 1.15
2. 0.197
3. 0.288
4. 0.205

Give measured cleaved RNA product abundance for every item shown.
1. ACAGACGAAGGAGCCGCAAAGAAGTAAATAAGGAATGAATAATCCCTCAATATAAATATCTCTCACTTATTTAAA
2. ACAGACGAAGGAGCCGCAAAAAATTTATTAAGGGATGAATAATCCCTCAATATAAATATCTCTCACTTATTTAAA
3. ACAGACGAAGGAGCCGCAAAGAAGTTATTAAGGGATGAAAAATCCCTCAATAGAAATATCTCTCACTTATTTAAA
4. ACAGACGAAGGAGCCGCAAAGAAGTTATTAAGTGATGACTAATCCCTCAATATAAATATCTCTCACTTATTTAAA
5. ACAGACGAAGGAGCCGCAAAAAAGTTATTAAGGGATGAGTAATCCCTCAATATAAATATCTCTCACTTATTTAAA
6. ACAGACGAAGGAGCCGCAAAGAAGTTATTAAGGGATGAACAATCCCTCACTATAAATATCTCTCACTTATTTAAA
7. ACAGACGAAGGAGCCGCAAAGAAATTATGAAGGGATGAATAATCCCTCAATATAAATATCTCTCACTTATTTAAA

*A*
[0.0667, 0.66, 0.192, 0.111, 0.415, 0.331, 0.386]
